recorded conditions: female, Balb/c, mouse, in vivo, po, 10 mg/kg
reported property: Tlast (h)

INSERT INTO results (compound, reported_property, unit_annotation, measured_result) VALUES
  ('Cc1cc(Nc2cc(N)ncn2)c(=O)n2c1C(=O)NC21CCCCC1', 'Tlast', 'h', 8),
  ('Cl.O=C1NC2(CCCNC2)n2c1c(Cl)cc(Nc1cc(NC(=O)C3CC3)ncn1)c2=O (stereo not drawn)', 'Tlast', 'h', 4),
  ('O=C1NC2(CCCC2)n2c1ccc(Nc1cc(NC(=O)C3CC3)ncn1)c2=O', 'Tlast', 'h', 4),
  ('Nc1cc(Nc2cc(Cl)c3n(c2=O)C2(CCCC2)NC3=O)ncn1', 'Tlast', 'h', 8),
  ('CC1(C)NC(=O)c2c(Cl)cc(Nc3cc(N)ncn3)c(=O)n21', 'Tlast', 'h', 8),
  ('O=C1NC2(CCC(F)(F)CC2)n2c1c(Cl)cc(Nc1cc(NC(=O)C3CC3)ncn1)c2=O', 'Tlast', 'h', 24),
  ('Cl.Nc1cc(Nc2cc(Cl)c3n(c2=O)C2(CCC(F)(F)CC2)NC3=O)ncn1', 'Tlast', 'h', 8),
  ('O=C1NC2(CCCCC2)n2c1c(Cl)cc(Nc1cc(NC(=O)C3CC3)ncn1)c2=O', 'Tlast', 'h', 8),
  ('CC1(c2cccc(Cl)c2)NC(=O)c2c(Cl)cc(Nc3cc(NC(=O)C4CC4)ncn3)c(=O)n21 (stereo not drawn)', 'Tlast', 'h', 24),
  ('O=C1NC2(CCCNC2)n2c1ccc(Nc1ccncn1)c2=O (stereo not drawn)', 'Tlast', 'h', 4),
  ('CC1(C(F)(F)F)NC(=O)c2c(Cl)cc(Nc3ccncn3)c(=O)n21 (stereo not drawn)', 'Tlast', 'h', 24),
  ('Cc1cc(Nc2cc(N)ncn2)c(=O)n2c1C(=O)NC21CCCC1.Cl', 'Tlast', 'h', 8),
  ('CC1(CC(F)(F)F)NC(=O)c2c(Cl)cc(Nc3ccncn3)c(=O)n21 (stereo not drawn)', 'Tlast', 'h', 24),
  ('CC1(C(F)(F)F)NC(=O)c2ccc(Nc3cc(NC(=O)C4CC4)ncn3)c(=O)n21 (stereo not drawn)', 'Tlast', 'h', 8),
  ('Nc1cc(Nc2cc(Cl)c3n(c2=O)C2(CCCCC2)NC3=O)ncn1', 'Tlast', 'h', 8),
  ('CC1(c2cccc(Cl)c2)NC(=O)c2c(Cl)cc(Nc3ccncn3)c(=O)n21 (stereo not drawn)', 'Tlast', 'h', 24),
  ('CC1(CC(F)(F)F)NC(=O)c2ccc(Nc3cc(NC(=O)C4CC4)ncn3)c(=O)n21 (stereo not drawn)', 'Tlast', 'h', 8),
  ('CC1(C)NC(=O)c2ccc(Nc3cc(NC(=O)C4CC4)ncn3)c(=O)n21', 'Tlast', 'h', 8),
  ('CC1(c2cccc(F)c2)NC(=O)c2c(Cl)cc(Nc3cc(NC(=O)C4CC4)ncn3)c(=O)n21 (stereo not drawn)', 'Tlast', 'h', 24),
  ('CC1(C2CCCC2)NC(=O)c2ccc(Nc3cc(NC(=O)C4CC4)ncn3)c(=O)n21 (stereo not drawn)', 'Tlast', 'h', 8),
  ('CC1(C)NC(=O)c2c(Cl)cc(Nc3cc(NC(=O)C4CC4)ncn3)c(=O)n21', 'Tlast', 'h', 8);

###

measurement protocol: Pharmacokinetics in Balb/c mice, single intravenous bolus administration
Assay type: in vivo
recorded conditions: female, mouse, plasma, intravenous bolus 1 mg/kg, formulation 10DMA/15EtOH/35PEG300/40D5W, gender F, read-out: T½ (converted)
Listing of recorded half-life by entry.
reported property: half-life

INSERT INTO results (molecule, measured_result) VALUES
  ('Nc1cc(Nc2cc(Cl)c3n(c2=O)C2(CCCC2)NC3=O)ncn1 [Cpd. No. 94]', '5.81 h'),
  ('Cc1cc(Nc2cc(N)ncn2)c(=O)n2c1C(=O)NC21CCCCC1 [Cpd. No. 107]', '2.91 h'),
  ('Cc1cc(Nc2cc(N)ncn2)c(=O)n2c1C(=O)NC21CCCC1.Cl [Cpd. No. 98]', '1.79 h'),
  ('CC1(C)NC(=O)c2c(Cl)cc(Nc3cc(N)ncn3)c(=O)n21 [Cpd. No. 88]', '1.3 h');

###

system: Mnk2 (Homo sapiens (Human))
Sequence (Q9HBH9 whole entry): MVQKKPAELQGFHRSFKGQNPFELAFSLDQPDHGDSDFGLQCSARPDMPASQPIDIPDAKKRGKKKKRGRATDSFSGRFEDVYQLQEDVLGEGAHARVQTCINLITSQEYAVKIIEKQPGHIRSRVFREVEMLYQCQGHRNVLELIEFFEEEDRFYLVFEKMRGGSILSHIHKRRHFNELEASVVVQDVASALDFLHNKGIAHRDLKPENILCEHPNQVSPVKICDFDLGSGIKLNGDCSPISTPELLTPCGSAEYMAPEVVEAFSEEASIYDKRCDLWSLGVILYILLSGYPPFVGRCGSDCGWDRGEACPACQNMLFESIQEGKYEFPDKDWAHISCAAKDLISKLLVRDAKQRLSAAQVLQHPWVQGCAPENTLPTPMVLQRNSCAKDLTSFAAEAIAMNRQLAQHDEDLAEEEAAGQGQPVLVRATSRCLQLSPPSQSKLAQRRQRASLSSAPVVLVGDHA
reported property: IC50

INSERT INTO assay_data (compound, system, reported_property, measured_result) VALUES
  ('Cl.Nc1cc(Nc2cc(Cl)c3n(c2=O)C2(CCC(F)(F)CC2)NC3=O)ncn1 [Cpd. No. 99, hydrochloride]', 'Mnk2 (Homo sapiens (Human))', 'IC50', '< 10 nM'),
  ('Cc1cc(Nc2cc(N)ncn2)c(=O)n2c1C(=O)NC2(C)C.Cl [Cpd. No. 102, hydrochloride]', 'Mnk2 (Homo sapiens (Human))', 'IC50', '< 10 nM');

###

measurement protocol: Pharmacokinetics in Balb/c mice, single intravenous bolus administration
Assay type: in vivo
recorded conditions: female, mouse, plasma, intravenous bolus 1 mg/kg, formulation 10DMI/15EtOH/35PG/40D5W, gender F, read-out: T½ (converted)
reported property: half-life (min)

INSERT INTO measurements (sample_smiles, measured_result) VALUES
  ('Nc1cc(Nc2cc(Cl)c3n(c2=O)C2(CCCCC2)NC3=O)ncn1', 33.7);

###

measurement protocol: Pharmacokinetics in Balb/c mice, single intravenous bolus administration
Type: in vivo
recorded conditions: female, mouse, plasma, intravenous bolus 1 mg/kg, formulation 10DMA/15EtOH/35PEG300/40D5W, gender F, read-out: AUCINF_obs
reported property: AUC(0-inf) (ng·h/mL)

INSERT INTO results (sample_smiles, reported_property, unit_annotation, measured_result) VALUES
  ('Cc1cc(Nc2cc(N)ncn2)c(=O)n2c1C(=O)NC21CCCC1.Cl', 'AUC(0-inf)', 'ng·h/mL', 358),
  ('CC1(C)NC(=O)c2c(Cl)cc(Nc3cc(N)ncn3)c(=O)n21', 'AUC(0-inf)', 'ng·h/mL', 273),
  ('Cc1cc(Nc2cc(N)ncn2)c(=O)n2c1C(=O)NC21CCCCC1', 'AUC(0-inf)', 'ng·h/mL', 502),
  ('Nc1cc(Nc2cc(Cl)c3n(c2=O)C2(CCCC2)NC3=O)ncn1', 'AUC(0-inf)', 'ng·h/mL', 812);

###

measurement protocol: in vivo
recorded conditions: female, Balb/c, mouse, po, 10 mg/kg, Cmax
Cmax overview
reported property: Cmax

INSERT INTO assay_data (compound, reported_property, measured_result) VALUES
  ('CC1(C(F)(F)F)NC(=O)c2c(Cl)cc(Nc3ccncn3)c(=O)n21 (centres unmarked)', 'Cmax', '6930 ng/mL'),
  ('CC1(c2cccc(Cl)c2)NC(=O)c2c(Cl)cc(Nc3cc(NC(=O)C4CC4)ncn3)c(=O)n21 (centres unmarked)', 'Cmax', '3160 ng/mL'),
  ('Nc1cc(Nc2cc(Cl)c3n(c2=O)C2(CCCC2)NC3=O)ncn1', 'Cmax', '1800 ng/mL'),
  ('CC1(CC(F)(F)F)NC(=O)c2ccc(Nc3cc(NC(=O)C4CC4)ncn3)c(=O)n21 (centres unmarked)', 'Cmax', '371 ng/mL'),
  ('Cc1cc(Nc2cc(N)ncn2)c(=O)n2c1C(=O)NC2(C)C.Cl', 'Cmax', '1800 ng/mL'),
  ('O=C1NC2(CCCNC2)n2c1ccc(Nc1ccncn1)c2=O (centres unmarked)', 'Cmax', '2240 ng/mL'),
  ('O=C1NC2(CCCC2)n2c1ccc(Nc1cc(NC(=O)C3CC3)ncn1)c2=O', 'Cmax', '50.2 ng/mL'),
  ('CC1(c2cccc(F)c2)NC(=O)c2c(Cl)cc(Nc3cc(NC(=O)C4CC4)ncn3)c(=O)n21 (centres unmarked)', 'Cmax', '3370 ng/mL');

###

measurement protocol: in vivo
recorded conditions: female, Balb/c, mouse, po, 10 mg/kg, Tmax
reported property: Tmax (min)

INSERT INTO results (compound, reported_property, measured_result) VALUES
  ('Cl.O=C1NC2(CCCNC2)n2c1c(Cl)cc(Nc1ccncn1)c2=O (centres unmarked)', 'Tmax', 30),
  ('CC1(c2cccc(Cl)c2)NC(=O)c2c(Cl)cc(Nc3ccncn3)c(=O)n21 (centres unmarked)', 'Tmax', 120),
  ('Cc1cc(Nc2cc(N)ncn2)c(=O)n2c1C(=O)NC21CCCCC1', 'Tmax', 60),
  ('CC1(CC(F)(F)F)NC(=O)c2c(Cl)cc(Nc3ccncn3)c(=O)n21 (centres unmarked)', 'Tmax', 60),
  ('Cc1cc(Nc2cc(N)ncn2)c(=O)n2c1C(=O)NC21CCCC1.Cl', 'Tmax', 18),
  ('CC1(C(F)(F)F)NC(=O)c2ccc(Nc3cc(NC(=O)C4CC4)ncn3)c(=O)n21 (centres unmarked)', 'Tmax', 120),
  ('Nc1cc(Nc2cc(Cl)c3n(c2=O)C2(CCCCC2)NC3=O)ncn1', 'Tmax', 15),
  ('O=C1NC2(CCCNC2)n2c1ccc(Nc1ccncn1)c2=O (centres unmarked)', 'Tmax', 30);
